TEST_TARGET: interaction between p53 and MDM2 proteins (recombinant GST-tagged MDM2) (Homo sapiens)
Sequence (Q00987 whole entry): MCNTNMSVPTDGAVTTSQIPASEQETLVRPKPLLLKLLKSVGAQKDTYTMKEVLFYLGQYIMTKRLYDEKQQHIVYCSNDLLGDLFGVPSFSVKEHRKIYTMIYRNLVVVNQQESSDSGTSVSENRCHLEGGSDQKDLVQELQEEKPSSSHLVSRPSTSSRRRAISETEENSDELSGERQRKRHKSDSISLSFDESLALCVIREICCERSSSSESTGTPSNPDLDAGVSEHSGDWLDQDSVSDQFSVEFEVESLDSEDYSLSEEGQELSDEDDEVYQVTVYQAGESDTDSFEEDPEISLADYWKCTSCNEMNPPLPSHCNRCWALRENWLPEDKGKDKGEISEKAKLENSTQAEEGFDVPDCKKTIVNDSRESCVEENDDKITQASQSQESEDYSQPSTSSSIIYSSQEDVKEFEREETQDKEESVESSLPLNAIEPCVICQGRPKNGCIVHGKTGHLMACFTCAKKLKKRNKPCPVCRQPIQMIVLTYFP
METHOD_NOTES: ELISA of inhibition of p53-MDM2 interaction (GST-tagged MDM2 binding to immobilized p53-like peptide)
MEASUREMENT_PARAMETERS: absorption at 450 nm, triplicate
Provide the reported IC50 of each item.
Give your result in µM as a bare value.

Name the recorded IC50 for CCOc1cc(OC)ccc1C1=N[C@H](CC2CCCC2)[C@H](c2ccc(Cl)cc2)N1C(=O)N1CCN(C)CC1 (stereo in doubt) [Example 24] .
13.2

Name the recorded IC50 for CCC[C@H]1N=C(c2ccc(OC)cc2OCC)N(C(=O)N2CCC(N3CCCC3)CC2)[C@H]1c1ccc(Cl)cc1 (stereo in doubt) [Example 26] .
45

Name the recorded IC50 for CCCCC[C@H]1N=C(c2ccc(OC)cc2OCC)N(C(=O)N2CCC(N3CCCC3)CC2)[C@H]1c1ccc(Cl)cc1 (relative stereo) [Example 55] .
0.7

Name the recorded IC50 for CCOc1cc(OC)ccc1C1=N[C@H](CC2CCCC2)[C@H](c2ccc(Cl)cc2)N1C(=O)N1CCC(N2CCCC2)CC1 (relative stereo) [Example 28] .
5.5

Entry source: patent US7132421B2
